Values were extracted from paper PMC8318587.

Test system: S. aureus (JE2, NTML transposon mutants, Newman resistant isolates)
Assay: POM-HEX half-maximal growth inhibitory concentration (IC50), microtiter broth dilution
Type: cell-based
Details: Staphylococcus aureus, read-out: POM-HEX IC50, transposon mutant NE377 (GloB, SAUSA300_1505)
Procedure: Half-maximal inhibitory concentration (IC50) determination was performed using microtiter broth dilution in clear 96-well plates ([European Committee for Antimicrobial Susceptibility Testing (EUCAST) of the ES of CM and ID (ESCMID), 2000]). […] Half-maximal inhibitory concentrations (IC50) were determined by fitting the OD600 of each condition following 10 hr of growth to a nonlinear regression using GraphPad Prism software. […]
Attribute Measured: pIC50
FYI, pIC50 means -log10 of a concentration in mol per litre.

*Q* # lookup: pIC50 of CC(C)(C)C(=O)OCOP(=O)(OCOC(=O)C(C)(C)C)C1CCCN(O)C1=O (stereo not shown) [POM-HEX]
*A* 4.97

----------
test system: human sera; assay: Esterase substrate specificity, fluorogenic SAR library kinetics in serum; format: in vitro ADME
Parameter: Km. Scope: all listed entries.
Only the number, expressed in µM, is required.

Molecule	Observed
CCCC(=O)OCOc1ccc2c(c1)Oc1cc(OCOC(=O)CCC)ccc1C21OC(=O)c2ccccc21	36.2

Moving on to the next molecule.
*Q* # lookup: Km of CSCCC(=O)OCOc1ccc2c(c1)Oc1cc(OCOC(=O)CCSC)ccc1C21OC(=O)c2ccccc21
*A* 27.9

----------
test system: human sera; assay: Esterase substrate specificity, fluorogenic SAR library kinetics in serum; assay type: in vitro ADME
Attribute Measured: Km (µM)
Only the number, expressed in µM, is required.

Some molecules with known Km results, for comparison:
Molecule	Readout Units	Km
COC(C)(C)C(=O)OCOc1ccc2c(c1)Oc1cc(OCOC(=O)C(C)(C)OC)ccc1C21OC(=O)c2ccccc21 [10O]	µM	63.3
C=CCOC(C)C(=O)OCOc1ccc2c(c1)Oc1cc(OCOC(=O)C(C)OCC=C)ccc1C21OC(=O)c2ccccc21 (stereo not shown) [12O]	µM	42.2

Moving on to the next molecule.
*Q* # lookup: Km of CCSCCC(=O)OCOc1ccc2c(c1)Oc1cc(OCOC(=O)CCSCC)ccc1C21OC(=O)c2ccccc21
*A* 31

----------
System: S. aureus (JE2, NTML transposon mutants, Newman resistant isolates)
Assay: POM-HEX half-maximal growth inhibitory concentration (IC50), microtiter broth dilution
Format: cell-based
Details: Staphylococcus aureus, read-out: POM-HEX IC50, transposon mutant NE1071 (capD, SAUSA300_0538)
Procedure: Half-maximal inhibitory concentration (IC50) determination was performed using microtiter broth dilution in clear 96-well plates ([European Committee for Antimicrobial Susceptibility Testing (EUCAST) of the ES of CM and ID (ESCMID), 2000]). […] Half-maximal inhibitory concentrations (IC50) were determined by fitting the OD600 of each condition following 10 hr of growth to a nonlinear regression using GraphPad Prism software. […]
Attribute Measured: pIC50
FYI, pIC50 means -log10 of a concentration in mol per litre.

*Q* # lookup: pIC50 of CC(C)(C)C(=O)OCOP(=O)(OCOC(=O)C(C)(C)C)C1CCCN(O)C1=O (stereo not shown) [POM-HEX]
*A* 5.81

----------
tested on: S. aureus (JE2, NTML transposon mutants, Newman resistant isolates); assay: POM-HEX half-maximal growth inhibitory concentration (IC50), microtiter broth dilution; type: cell-based; conditions: Staphylococcus aureus, read-out: POM-HEX IC50, transposon mutant NE293 (SAUSA300_1285)
Attribute Measured: pIC50
FYI, pIC50 means -log10 of a concentration in mol per litre.

*Q* # lookup: pIC50 of CC(C)(C)C(=O)OCOP(=O)(OCOC(=O)C(C)(C)C)C1CCCN(O)C1=O (stereo not shown) [POM-HEX]
*A* 5.85

----------
target: SaGloB (Staphylococcus aureus, UniProt P0DY75); experiment: Esterase substrate specificity, fluorogenic SAR library kinetics; type: biochemical; conditions: SaGloB, normalised to uncatalysed hydrolysis rate
Sequence (P0DY75 1-207): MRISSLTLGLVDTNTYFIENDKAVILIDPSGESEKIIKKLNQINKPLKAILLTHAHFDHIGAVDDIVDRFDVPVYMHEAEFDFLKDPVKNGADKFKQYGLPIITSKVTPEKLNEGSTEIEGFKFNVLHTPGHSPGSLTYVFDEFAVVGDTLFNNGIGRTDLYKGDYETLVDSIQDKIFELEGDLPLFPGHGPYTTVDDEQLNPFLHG
Attribute Measured: kcat/kuncat

Some compounds with known kcat/kuncat results, for comparison:
Compound	Attribute Measured	Observed
CCC(OC)C(=O)OCOc1ccc2c(c1)Oc1cc(OCOC(=O)C(CC)OC)ccc1C21OC(=O)c2ccccc21 (centres unmarked)	kcat/kuncat	14.6 103
COC(C)C(=O)OCOc1ccc2c(c1)Oc1cc(OCOC(=O)C(C)OC)ccc1C21OC(=O)c2ccccc21 (centres unmarked)	kcat/kuncat	23.6 103

*Q* # lookup: kcat/kuncat of CCCCC(=O)OCOc1ccc2c(c1)Oc1cc(OCOC(=O)CCCC)ccc1C21OC(=O)c2ccccc21
*A* 17.2 103

*Q* # lookup: kcat/kuncat of CC(C)OCC(=O)OCOc1ccc2c(c1)Oc1cc(OCOC(=O)COC(C)C)ccc1C21OC(=O)c2ccccc21
*A* 5.76 103

*Q* # lookup: kcat/kuncat of C=CCOC(C)C(=O)OCOc1ccc2c(c1)Oc1cc(OCOC(=O)C(C)OCC=C)ccc1C21OC(=O)c2ccccc21 (centres unmarked) [12O]
*A* 1.28 103

*Q* # lookup: kcat/kuncat of CCOCCC(=O)OCOc1ccc2c(c1)Oc1cc(OCOC(=O)CCOCC)ccc1C21OC(=O)c2ccccc21
*A* 17.0 103

*Q* # lookup: kcat/kuncat of COCC(=O)OCOc1ccc2c(c1)Oc1cc(OCOC(=O)COC)ccc1C21OC(=O)c2ccccc21
*A* 38.6 103

*Q* # lookup: kcat/kuncat of CC(C)SCC(=O)OCOc1ccc2c(c1)Oc1cc(OCOC(=O)CSC(C)C)ccc1C21OC(=O)c2ccccc21
*A* 12.9 103

----------
test system: S. aureus (JE2, NTML transposon mutants, Newman resistant isolates); test: POM-HEX half-maximal growth inhibitory concentration (IC50), microtiter broth dilution; type: cell-based; conditions: Staphylococcus aureus, read-out: POM-HEX IC50, transposon mutant NE503 (estA, FrmB, SAUSA300_2564)
Attribute Measured: pIC50
FYI, pIC50 means -log10 of a concentration in mol per litre.

*Q* # lookup: pIC50 of CC(C)(C)C(=O)OCOP(=O)(OCOC(=O)C(C)(C)C)C1CCCN(O)C1=O (stereo not shown) [POM-HEX]
*A* 5.20

----------
tested on: human sera; experiment: Esterase substrate specificity, fluorogenic SAR library kinetics in serum; format: in vitro ADME
Attribute Measured: Km (µM)
Only the number, expressed in µM, is required.

Some compounds with known Km results, for comparison:
Compound	Tested System	Readout Units	Observed
CCCSCC(=O)OCOc1ccc2c(c1)Oc1cc(OCOC(=O)CSCCC)ccc1C21OC(=O)c2ccccc21 [3S]	human sera	µM	74.3
CCCOCC(=O)OCOc1ccc2c(c1)Oc1cc(OCOC(=O)COCCC)ccc1C21OC(=O)c2ccccc21 [3O]	human sera	µM	22.2
CCOCC(=O)OCOc1ccc2c(c1)Oc1cc(OCOC(=O)COCC)ccc1C21OC(=O)c2ccccc21 [2O]	human sera	µM	40.4

Moving on to the next compound.
*Q* # lookup: Km of CC(C)OCC(=O)OCOc1ccc2c(c1)Oc1cc(OCOC(=O)COC(C)C)ccc1C21OC(=O)c2ccccc21 [6O]
*A* 54.6

----------
test system: human sera; experiment: Esterase substrate specificity, fluorogenic SAR library kinetics in serum; assay type: in vitro ADME
Attribute Measured: Km (µM)
Only the number, expressed in µM, is required.

Compound	Tested System	Observed
CCC(C)C(=O)OCOc1ccc2c(c1)Oc1cc(OCOC(=O)C(C)CC)ccc1C21OC(=O)c2ccccc21 (centres unmarked) [7C]	human sera	64.2
CCC(OC)C(=O)OCOc1ccc2c(c1)Oc1cc(OCOC(=O)C(CC)OC)ccc1C21OC(=O)c2ccccc21 (centres unmarked) [9O]	human sera	112
COCCC(=O)OCOc1ccc2c(c1)Oc1cc(OCOC(=O)CCOC)ccc1C21OC(=O)c2ccccc21 [4O]	human sera	44.5

Moving on to the next compound.
*Q* # lookup: Km of CSC(C)C(=O)OCOc1ccc2c(c1)Oc1cc(OCOC(=O)C(C)SC)ccc1C21OC(=O)c2ccccc21 (centres unmarked) [7S]
*A* 30.2

----------
Parameter: Km. Scope: all listed entries.
test system: human sera; test: Esterase substrate specificity, fluorogenic SAR library kinetics in serum; assay type: in vitro ADME
Only the number, expressed in µM, is required.

Some compounds with known Km results, for comparison:
Compound	Readout Units	Observed
CCCCC(=O)OCOc1ccc2c(c1)Oc1cc(OCOC(=O)CCCC)ccc1C21OC(=O)c2ccccc21	µM	71.5
CCOCCC(=O)OCOc1ccc2c(c1)Oc1cc(OCOC(=O)CCOCC)ccc1C21OC(=O)c2ccccc21	µM	35.4
CCOC(C)C(=O)OCOc1ccc2c(c1)Oc1cc(OCOC(=O)C(C)OCC)ccc1C21OC(=O)c2ccccc21 (centres unmarked)	µM	27.7

*Q* # lookup: Km of CSCC(=O)OCOc1ccc2c(c1)Oc1cc(OCOC(=O)CSC)ccc1C21OC(=O)c2ccccc21
*A* 71.8

*Q* # lookup: Km of COCC(=O)OCOc1ccc2c(c1)Oc1cc(OCOC(=O)COC)ccc1C21OC(=O)c2ccccc21
*A* 64.1

*Q* # lookup: Km of COC(C)C(=O)OCOc1ccc2c(c1)Oc1cc(OCOC(=O)C(C)OC)ccc1C21OC(=O)c2ccccc21 (centres unmarked)
*A* 30.3
